target: Cytochrome P450 1A2 (Homo sapiens)
Sequence (P05177 whole entry): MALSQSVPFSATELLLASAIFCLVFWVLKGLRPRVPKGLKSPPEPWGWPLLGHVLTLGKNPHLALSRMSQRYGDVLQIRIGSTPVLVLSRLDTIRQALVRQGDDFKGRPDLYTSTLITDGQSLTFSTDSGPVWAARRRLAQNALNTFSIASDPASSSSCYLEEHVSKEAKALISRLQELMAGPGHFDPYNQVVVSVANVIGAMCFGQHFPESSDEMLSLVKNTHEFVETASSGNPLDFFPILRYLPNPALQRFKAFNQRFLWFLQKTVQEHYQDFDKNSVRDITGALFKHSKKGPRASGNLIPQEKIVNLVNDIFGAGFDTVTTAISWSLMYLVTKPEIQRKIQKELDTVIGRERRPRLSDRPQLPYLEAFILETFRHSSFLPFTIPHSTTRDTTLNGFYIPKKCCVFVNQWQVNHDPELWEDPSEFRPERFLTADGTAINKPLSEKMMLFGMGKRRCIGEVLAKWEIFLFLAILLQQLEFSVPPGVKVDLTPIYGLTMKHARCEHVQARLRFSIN
pIC50: −log10 of the molar value.
endpoint: pIC50

So for C[C@@H]1CN[C@@H](C2CC2)C(=O)N(C)[C@H](C)C(=O)N[C@H](Cc2ccc(F)cc2)C(=O)NCCCc2ccccc2O1.Cl.O [ULIMORELIN HYDROCHLORIDE] , the logged pIC50 turned out to be < 4.00

---

experiment: Permeability across serosal to mucosal side human Caco2 cells; format: ADME, cell-based; settings: Caco-2, read-out: permeability
endpoint: Papp B→A

Example entries and their recorded answers appear below.
compound=CC[C@H](C)[C@@H]1NCCOc2ccccc2CCCNC(=O)[C@@H](Cc2ccc(Cl)cc2)NC(=O)[C@@H](C)N(C)C1=O data_value="15 ×10⁻⁶ cm/s"
compound="C[C@@H]1CN[C@@H](C2CC2)C(=O)N(C)[C@H](C)C(=O)N[C@H](Cc2ccc(F)cc2)C(=O)NCCCc2ccccc2O1.Cl.O [ULIMORELIN HYDROCHLORIDE]" data_value="14 ×10⁻⁶ cm/s"

For reference, reported Papp B→A for C[C@@H]1C(=O)N[C@H](Cc2ccc(F)cc2)C(=O)NCCCc2ccc(F)cc2OCCN[C@@H](C2CC2)C(=O)N1C stands at 12.5 ×10⁻⁶ cm/s

---

test: Drug excretion in Sprague-Dawley rat assessed as unchanged recovery in feces at 6 mg/kg, iv measured after 30 mins; settings: faeces
endpoint: dose excreted at 0.5 h (%)
Record the value in %, omitting the unit from your answer.

So for C[C@@H]1CN[C@@H](C2CC2)C(=O)N(C)[C@H](C)C(=O)N[C@H](Cc2ccc(F)cc2)C(=O)NCCCc2ccccc2O1.Cl.O [ULIMORELIN HYDROCHLORIDE] , the logged dose excreted at 0.5 h turned out to be 95

---

test: Cmax in cynomolgus monkey at 8 mg/kg, po; assay type: ADME, organism-based, Macaca fascicularis; set-up: dose 8 mg/kg, route oral; settings: in vivo
Cmax for assorted compounds
Output spec: scalar in nM, unitless text.

compound=C[C@@H]1C(=O)N[C@H](Cc2ccc(F)cc2)C(=O)NCCCc2ccc(F)cc2OCCN[C@@H](C2CC2)C(=O)N1C data_value=90

Consider now this further compound.
Entry C[C@@H]1CN[C@@H](C2CC2)C(=O)N(C)[C@H](C)C(=O)N[C@H](Cc2ccc(F)cc2)C(=O)NCCCc2ccccc2O1.Cl.O [ULIMORELIN HYDROCHLORIDE] — recorded Cmax = 1400

---

Measured pEC50 of individual entries
target: Growth hormone secretagogue receptor type 1 (Homo sapiens, UniProt Q92847); assay: Agonist activity at human GRLN receptor expressed in HEK293 cells assessed as calcium binding by Ca2+ bioluminescence aequorin assay
Sequence (Q92847 whole entry): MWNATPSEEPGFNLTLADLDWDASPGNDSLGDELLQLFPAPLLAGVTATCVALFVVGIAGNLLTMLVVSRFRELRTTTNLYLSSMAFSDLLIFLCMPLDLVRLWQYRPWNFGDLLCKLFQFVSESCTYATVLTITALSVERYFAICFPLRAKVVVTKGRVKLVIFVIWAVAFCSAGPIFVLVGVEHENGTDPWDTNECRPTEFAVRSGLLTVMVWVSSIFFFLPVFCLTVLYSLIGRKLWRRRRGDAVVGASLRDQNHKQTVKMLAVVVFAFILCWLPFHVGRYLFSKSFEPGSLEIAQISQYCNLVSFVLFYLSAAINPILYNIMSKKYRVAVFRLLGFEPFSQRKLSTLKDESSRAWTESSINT
Please treat pEC50 as minus the base-10 logarithm of the molar concentration.

cpd_smiles=C[C@@H]1C(=O)N[C@H](Cc2ccc(F)cc2)C(=O)NCCCc2ccccc2O[C@@H](C)CN[C@@H](C2CC2)C(=O)N1C target_entity="Growth hormone secretagogue receptor type 1 (Homo sapiens, UniProt Q92847)" data_value=7.59
cpd_smiles=CC[C@H](C)[C@@H]1NCCOc2ccccc2CCNC(=O)[C@@H](Cc2ccccc2)NC(=O)[C@@H](C)N(C)C1=O target_entity="Growth hormone secretagogue receptor type 1 (Homo sapiens, UniProt Q92847)" data_value=6.28

Now consider the entry below.
// pEC50 (Growth hormone secretagogue receptor type 1 (Homo sapiens, UniProt Q92847)) for C[C@@H]1C(=O)N[C@H](Cc2ccc(C(F)(F)F)cc2)C(=O)NCCCc2ccccc2OCCN[C@@H](C2CC2)C(=O)N1C = 7.96
